# Lookup of reported protein stability index keyed by entry
testProtocol: protein stability index of a GFP-peptide fusion (yeast GPS) (PSI 1-4); higher = more stable; sorted into four equal gates, so the index is relative within each strain
experimentalSetup: ubr1∆
Form rule: numeric answer, no unit written next to it.

Examples with their reported protein stability index follow.
> print(dat)
                        itemsequence  reported
1   ILKSLKNRSNRKRFHSQ [YOR098C/NUP1]      3.11
2           VDVAKDINVKDLKASQR [RPT6]      3.22
3           APLFKKNSSRPMPPIRG [SMD3]       2.5
4  MEDPPSTVSGELNDNPA [YMR153W/NUP53]      2.83
5         FVRGDSKIFRFQNSKSA [RPL24A]      2.43
6           EKLVSDLRLIKVPQQAA [SMC1]       3.3
7           SRRWRQRKNIQSLELMI [BRR2]      1.29
8           ESPVDVQSQVDSSSVSE [FAS1]      3.23

Summary for this sequence, IRFRIEREVFVDVKPKS [RPC25] : protein stability index is 2.12

Sure, the documented protein stability index for KESIVLPTVGFDFIKDN [YOR098C/NUP1] is 2.83

Short answer for DIINAVNEIMYKCTAAM [MTW1] : protein stability index was 2.33

* * *

Reported values of protein stability index for individual entries
testProtocol: protein stability index of a GFP-peptide fusion (yeast GPS) (PSI 1-4); higher = more stable; sorted into four equal gates, so the index is relative within each strain
experimentalSetup: pdr5∆
Just the number, please, no unit attached.

Worked cases, protein stability index given:
> print(dat)
                       itemsequence  reported
1          FTNELKAELDRYKRENQ [SEM1]      3.38
2          WGVNLPAHTVIIKGTDV [BRR2]      2.79
3  QAIITERLVEFSNVNEL [YIL149C/MLP2]      3.38
4          PIMFQDFDDSTAQEINF [IRR1]      2.92
5          LGILKKKRFDEFMAGFN [SMC4]      2.15

The reported protein stability index of the sequence ADEPVKASLLLHVLVAH [FAS2] was 1.59

protein stability index for TKFSNPAIPPVIDLEKI [BRR2] is 2.75

* * *

testProtocol: protein stability index of a GFP-peptide fusion (yeast GPS) (PSI 1-4); higher = more stable; sorted into four equal gates, so the index is relative within each strain
experimentalSetup: san1∆
# cutoff 3 applies to protein stability index; >= gives true, < gives false

Below, 4 sequences whose answers are already recorded.
> print(dat)
                itemsequence  classassignment
1   HHYNPKTKKLNLSAFKI [BRR2]            false
2   YLYCLDNNITEMLEENF [YCG1]            false
3  MKYIQTEQQIEIPEGVT [RPL9B]            false
4  DDKYGRKFALEKLYIFY [SRP72]            false

Prompt: Is the recorded value of protein stability index equal to or greater than 3 for this sequence? HKTFLVANVKDLETLTM [RPL32]
Completion: true

Prompt: Please check the record PRGVLLYGPPGTGKTML [RPT3] and state if its protein stability index is at or above 3.
Completion: false
